Sourced from PubChem BioAssay AID431

test: viability loss of HPDE-C7K cells – cell-based, fluorescence, HTS, primary screen (AID 431); settings: HPDE-C7K KRASV12 cells, Alamar Blue viability, 48 h; at 10 µM; stronger effect = higher value;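 also: 0% = DMSO solvent wells and 100% = doxorubicin-treated wells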
About 1,100 (1.7%) of roughly 63,000 compounds were called active. Shown is part of a subset that was picked to be rich in actives. Potency and affinity values are given separately.
Task for the reader: assign each of the following compounds its reported cytotoxicity.
Numbers only, in %.

# compound, quantitative result
data = [
    ("COc1ccc(-c2csc(NC(C)=O)n2)cc1OC", 10.2),
    ("O=C(c1ccco1)N1CCN(c2nc(C3CC3)nc3sc4c(c23)CCCC4)CC1", 50.9),
    ("Cn1nccc1/C=C(/C#N)S(=O)(=O)c1ccccc1", -21.9),
    ("COc1ccc(C(=O)Oc2ccc(C(C)=O)cc2)c(OC)c1", 3.6),
    ("Cc1ccc(O)c(N=CC2=C(O)c3ccccc3C2=O)c1", 52.6),
    ("Nc1c(S(=O)(=O)c2ccccc2)c2nc3ccccc3nc2n1/N=C/c1ccco1", 45.3),
]

# map each compound to its cytotoxicity
1. Nc1c(S(=O)(=O)c2cccc(Cl)c2)c2nc3ccccc3nc2n1/N=C/c1ccc(O)c(O)c1
2. O=C(c1ccccc1C(=O)N1CCN(c2ccccc2F)CC1)N1CCN(c2ccccc2F)CC1
3. COc1ccc(OC)c(Nc2nc(-c3ccc(O)c(O)c3)cs2)c1
4. COc1ccc(OC)c(Nc2nc(-c3sc(C)nc3C)cs2)c1
5. CCOC(=O)C1=C(N)Oc2cc(C)oc(=O)c2C1c1cccnc1 (configuration not stated)
6. Cc1cccc(S(=O)(=O)c2c(N)n(/N=C/c3cccnc3)c3nc4ccccc4nc23)c1
7. O=C(Cn1c(=O)sc2ccccc21)NCCOc1ccccc1F

126
4
59.5
26.2
4.4
23.4
-11.5
